test: self-splicing fitness, log relative to wild type (ln ratio); higher = more splicing; Tetrahymena group I intron in knt gene, E. coli kanamycin selection, DiMSum; sequences stand for … in CUCUCU…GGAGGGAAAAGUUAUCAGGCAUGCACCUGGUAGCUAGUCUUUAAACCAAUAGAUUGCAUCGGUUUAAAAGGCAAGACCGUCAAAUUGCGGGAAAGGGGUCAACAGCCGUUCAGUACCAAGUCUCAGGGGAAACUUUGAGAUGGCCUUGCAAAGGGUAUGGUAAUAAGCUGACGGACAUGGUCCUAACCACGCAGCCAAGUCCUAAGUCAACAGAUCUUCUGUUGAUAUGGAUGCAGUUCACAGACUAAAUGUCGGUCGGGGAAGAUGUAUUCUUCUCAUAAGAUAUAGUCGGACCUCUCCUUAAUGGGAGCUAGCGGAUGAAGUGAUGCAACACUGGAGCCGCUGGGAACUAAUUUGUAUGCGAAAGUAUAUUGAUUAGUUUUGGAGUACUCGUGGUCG; conditions: 30 °C;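 note: selection with 25 µg/mL kanamycin versus none on LB agar overnight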
Consider the following sequences; for each one, report its self-splicing fitness (ln).
Please give the numeric answer without any surrounding text.

# self-splicing fitness (ln) of CUCCAGCAAUAUUACGUACU = -3.3

# self-splicing fitness (ln) of AGGCAGCAAUAUUACGUUCU = -1.86

# self-splicing fitness (ln) of ACUAAGCAAUAUUACGAUAU = -1.39

# self-splicing fitness (ln) of AUUGAGCAAUAUUACGCUAC = -3.69

# self-splicing fitness (ln) of CAAAAGCAAUAUUACGCGGG = -2.38

# self-splicing fitness (ln) of UACAAGCAAUAUUACGGCCA = -0.557

# self-splicing fitness (ln) of CUCUAGCAAUAUUACGGGUA = -2.21

# self-splicing fitness (ln) of CAAAAGCAAUAUUACGUCCG = -0.119

# self-splicing fitness (ln) of GACAAGCAAUAUUACGAUAC = -1.73

# self-splicing fitness (ln) of CGGAAGCAAUAUUACGCCUG = -1

# self-splicing fitness (ln) of AGUGAGCAAUAUUACGCCGU = -2.39

# self-splicing fitness (ln) of ACAAAGCAAUAUUACGUAAA = -2.08

# self-splicing fitness (ln) of AAUCAGCAAUAUUACGACGU = 0.0618

# self-splicing fitness (ln) of AGUCAGCAAUAUUACGACAA = -0.509

# self-splicing fitness (ln) of CACUAGCAAUAUUACGUCCG = -0.0671

# self-splicing fitness (ln) of GACCAGCAAUAUUACGGGAC = -2.5

# self-splicing fitness (ln) of UACCAGCAAUAUUACGACGC = -2.41

# self-splicing fitness (ln) of CGUCAGCAAUAUUACGGCUA = -0.938

# self-splicing fitness (ln) of ACUUAGCAAUAUUACGCUCC = -1.44

# self-splicing fitness (ln) of CUCUAGCAAUAUUACGUGGC = -3.7

# self-splicing fitness (ln) of UACAAGCAAUAUUACGGAAC = -3.75

# self-splicing fitness (ln) of UCGAAGCAAUAUUACGUAUG = -2.78

# self-splicing fitness (ln) of CAUAAGCAAUAUUACGAGCG = 0.0605

# self-splicing fitness (ln) of ACGUAGCAAUAUUACGUGUC = -3.68

# self-splicing fitness (ln) of GAGUAGCAAUAUUACGUAUA = -2.4

# self-splicing fitness (ln) of UUAGAGCAAUAUUACGAUGC = -2.04

# self-splicing fitness (ln) of UUCAAGCAAUAUUACGACUC = -1.98

# self-splicing fitness (ln) of ACAAAGCAAUAUUACGGUCA = -0.595

# self-splicing fitness (ln) of CGUAAGCAAUAUUACGCCUG = -1.21

# self-splicing fitness (ln) of AGUGAGCAAUAUUACGGCAU = -1.36

# self-splicing fitness (ln) of GUCUAGCAAUAUUACGGCGC = -0.167

# self-splicing fitness (ln) of ACCAAGCAAUAUUACGGGGC = -3.74

# self-splicing fitness (ln) of GCACAGCAAUAUUACGUACA = -2.07

# self-splicing fitness (ln) of GUUCAGCAAUAUUACGCAUU = -0.22

# self-splicing fitness (ln) of CCAAAGCAAUAUUACGCCCU = -3.49
